Tested on: Aphid
Settings: Aphids on cotton plants, green house; dose 1 ml/gm/lit.; 10 insects/plant, 10 plants/treatment; 48 hrs
We begin with a simple list: items and their reported Total No. of dead insect at 48 Hrs..
Please state the value as a number alone, without comment.

Worked examples follow.
CC1=CCC2CC1C2(C)C (stereo not drawn) [Alpha-pinene] : 60.00
C=CCc1ccc(OC)cc1 [Methyl chavicol] : 67.50
CCCCCCCCCC(C)=O [Embodiment 2-undecanone, 2-undecanone] : 67.50
C/C=C\c1cc(OC)c(OC)cc1OC [β-Asarone] : 70.00

Note: attention shifts to another entry.
GET /value?item= CC1=CC(=O)C(C(C)C)=CC1=O [Thymoquinone] &field=Total No. of dead insect at 48 Hrs. returns 47.50

Origin of the recorded values: patent US20250351832A1
